All figures here come from the NIST ThermoML archive (doi:10.1016/j.fluid.2015.12.055).

Parameter mass density: see the listing below.
- experimental-parameters: 343.15 K; 101.33 kPa; Liquid; Vibrating tube method
Write the number in kg/m3 without appending the unit.

compound	numeric-result
CCn1cc[n+](C)c1.O=S(=O)([N-]S(=O)(=O)C(F)(F)C(F)(F)F)C(F)(F)C(F)(F)F	1544.63
CCn1cc[n+](C)c1.O=S(=O)([O-])C(F)(F)C(F)(F)C(F)(F)C(F)(F)F	1499.78
CCn1cc[n+](C)c1.F[B-](F)(F)F [1-ethyl-3-methylimidazolium tetrafluoroborate]	1246.11

Note to self: mass density recorded for CCn1cc[n+](C)c1.O=S(=O)([N-]S(=O)(=O)C(F)(F)F)C(F)(F)F was 1474.1
